- test: chemical genetic growth profiling, strain panel (AID 1159580);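 further: tested at 20 µM; growth read once vehicle control cultures reached saturation at 30 °C; 1 = growth at the plate median or of vehicle wells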
- condition_description: S. cerevisiae deletion strains, growth OD, locus YOR136W, strain idh2, stronger effect = lower value
The campaign covered roughly 5,500 compounds. About 2,000 (36%) were called active. Another 18% or so got no clear call; they are omitted. Some of the results follow. Where a SMILES comes first, the peptide text is derived from it. The star is where a group is joined. For = O=C*
Listing of recorded normalized growth by entry.

Answered cases to consult:
compound	normalized growth
CC1(C)CC[C@@]2(C(=O)O)C(C1)C1=CCC3[C@@]4(C)CC[C@H](O)C(C)(C)C4CC[C@@]3(C)[C@]1(C)C[C@@H]2O (some centres undefined)	1.04 (inactive)
Cc1ccc(-c2cc(C(F)(F)F)nn2-c2ccc(S(N)(=O)=O)cc2)cc1	1.01 (inactive)

Give recorded normalized growth. CCOP(=S)(OCC)Oc1nc(Cl)c(Cl)cc1Cl
0.992 (inactive)

For the compound COC1=C[C@@H]2[C@@H]3Cc4ccc(OC)c(O)c4[C@]2(CCN3C)CC1=O , give its reported normalized growth.
0.988 (inactive)

Give the reported value of normalized growth for this record: CSCCC(NC=O)C(=O)NC(Cc1ccccc1)C(=O)O (stereo not drawn) (For-Met-Phe-OH; configuration not given here)
1.02 (inactive)

Query normalized growth for CC(=O)Nc1ccc(OCC(O)CNC(C)C)cc1 (centres undefined)
0.999 (inactive)

Determine its reported normalized growth: CO[C@@]12[C@@H]3NC3CN1C1=C(C(=O)C(N)=C(C)C1=O)[C@@H]2COC(N)=O (some centres undefined)
0.981 (inactive)

In one line, give reported normalized growth of the entry C[C@@H]1CC[C@]2(C(=O)O)CC[C@]3(C)C(=CCC4[C@@]5(C)CC[C@H](O)C(C)(C)C5CC[C@]43C)C2[C@H]1C (some centres undefined) .
0.993 (inactive)

Tell us which normalized growth value is on record for CCOP(=S)(OCC)Oc1cc(C)nc(C(C)C)n1
0.986 (inactive)

----------
- test: chemical genetic growth profiling, strain panel (AID 1159580);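 further: tested at 20 µM; growth read once vehicle control cultures reached saturation at 30 °C; 1 = growth at the plate median or of vehicle wells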
- condition_description: S. cerevisiae deletion strains, growth OD, locus YOL006C, strain TOP1
In all, about 5,500 compounds went through this assay and about 2,000 (36%) were called active. About 18% were inconclusive and are not listed. No stated cut-off is given here; in the data, active means normalized growth mostly below about 0.91 (no sharp cut-off); inconclusive means no clear call, values can overlap the other calls; inactive means mostly above about 0.92. The list shows a part of the results.
Could you please pick one outcome from this set? 1 = active, 0 = inactive

Which result was noted for this compound in the test: COC1=C[C@@H]2[C@@H]3Cc4ccc(OC)c(O)c4[C@]2(CCN3C)CC1=O
0

----------
- test: chemical genetic growth profiling, strain panel (AID 1159580);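 further: tested at 20 µM; growth read once vehicle control cultures reached saturation at 30 °C; 1 = growth at the plate median or of vehicle wells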
- condition_description: S. cerevisiae deletion strains, growth OD, strain TSCII, stronger effect = lower value
The campaign covered roughly 5,500 compounds. About 2,000 (36%) were called active. About 18% were inconclusive and are not listed. The list shows a part of the results.
parameter: normalized growth
# print the numeric value only

Please indicate normalized growth recorded for O=C(NCCNc1ncc(Cl)cc1C(F)(F)F)C(F)(F)Sc1ccccc1
0.978

Report normalized growth for O=C(NCCNc1ncc(C(F)(F)F)cc1Cl)C(F)(F)Sc1ccccc1
0.982

Tell us which normalized growth value is on record for O=C(NCCc1ccncc1)c1ccc(Cl)c(Cl)c1
0.983

----------
- test: chemical genetic growth profiling, strain panel (AID 1159580);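 further: tested at 20 µM; growth read once vehicle control cultures reached saturation at 30 °C; 1 = growth at the plate median or of vehicle wells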
- condition_description: S. cerevisiae deletion strains, growth OD, locus YJL164C, strain tpk1
In all, about 5,500 compounds went through this assay and about 2,000 (36%) were called active. Another 18% or so got no clear call; they are omitted. Rule as the data show it: active = normalized growth mostly below about 0.91 (no sharp cut-off); inconclusive = no clear call, values can overlap the other calls; inactive = mostly above about 0.92. The list shows a part of the results.
One label from this list, please: true (1) = active, false (0) = inactive

molecule	class_label
CCCCCCCCCCCC[C@H](C(=O)O)[C@@H](C)C(=O)O	false (0)
CC(C)CCCC1(C)C=Cc2c(O)c3c(c(CCC(C)C)c2O1)OC12C(CC4CC1C(C)(C)OC2(CCC(C)C(=O)O)C4O)C3=O (centres undefined)	false (0)
CCOP(=S)(OCC)Oc1nc(Cl)c(Cl)cc1Cl	true (1)
COc1ccc2c(c1)c(CC(=O)O)c(C)n2C(=O)c1ccc(Cl)cc1	false (0)
Cc1ccnc(NS(=O)(=O)c2ccc(N)cc2)n1	false (0)
CC1(C)CC[C@]2(C)CC[C@]3(C)C(=CCC4[C@@]5(C)CC[C@H](O)C(C)(C)C5CC[C@]43C)C2C1 (some centres undefined)	false (0)
Nc1ccc(S(=O)(=O)Nc2ccnn2-c2ccccc2)cc1	false (0)
Cc1cc(-n2c(=O)[nH]c(=O)n(C)c2=O)ccc1Oc1ccc(SC(F)(F)F)cc1	true (1)

Kindly review the next molecule as well.
Which result was noted for this molecule in the test: CC1(C)CC[C@]2(C(=O)O)CC[C@]3(C)C(=CCC4[C@@]5(C)CC[C@@H](O)C(C)(C)C5CC[C@]43C)C2C1 (some centres undefined)
false (0)
